- System: EfPiwi piRISC loaded with piRNA #1 (26 nt)
- Experimental protocol: pre-steady-state target cleavage rate (min^-1); auxiliary factor: 500 nM Ephydatia muelleri Gtsf1; guide: piRNA #1 5'p-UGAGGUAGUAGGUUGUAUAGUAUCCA; MIWI and MILI are mouse PIWI proteins and EfPiwi is from a freshwater sponge; tags in brackets are library labels; higher = faster piRNA-guided slicing of the target
Readout label: pre-steady-state target cleavage rate

// below: answered sequences
GGAGAGCAUAGUAUACAACCUACUACCUCA    0.0077
GGAGAGAUACUAUACAACCUACUACCUCA    0.121
GGAGACCUUACUAUACAUCCUACUACCUCA    0.00607
GGAGACCUAAGCUAUACAACCUACUACCUCA    0.184
GGAGAGGAUACUAUACAACCACUACCUCA    0.00549

Kindly give each listed record's pre-steady-state target cleavage rate.
1. GGAGUCCAUACUAUACAACCUACUACCUCA
2. GGAGAGGAUACUAUUCAACCUACUACCUCA

(A)
0.0575
0.012
